assay: RP, Waters ACQUITY UPLC BEH C18, 100 × 1 mm, 1.7 µm, 50 °C, 0.3 mL/min, estimated dead time 0.17 min; A: water + 0.1% formic acid + 20 mM ammonium formate; B: methanol + 0.1% formic acid + 20 mM ammonium formate; gradient (min/%B) 0/0 15/100 21/100 22/0 30/0; details: stereoisomer not certain
I would appreciate it if you labelled entries t when LC retention time is 10 min or higher, otherwise f.

Below, 5 compounds whose answers are already recorded.
- COMPOUND: "CCOC(=O)NCCOc1ccc(Oc2ccccc2)cc1"
  ASSIGNED_CLASS: "t"
- COMPOUND: "Cc1c(C(C)C)c(=O)n(-c2ccccc2)n1C"
  ASSIGNED_CLASS: "t"
- COMPOUND: "COCC(=O)N(c1c(C)cccc1C)N1CCOC1=O"
  ASSIGNED_CLASS: "t"
- COMPOUND: "CC(C)Nc1nc(N)[nH]c(=O)n1 [Atrazin-desethyl-2-hydroxy]"
  ASSIGNED_CLASS: "f"
- COMPOUND: "O=c1cc(-c2ccc(O)cc2)oc2cc(OC3OC(CO)C(O)C(O)C3OC3OCC(O)(CO)C3O)cc(O)c12 (centres undefined)"
  ASSIGNED_CLASS: "t"

Task item: Please check the record COc1ccc(NC(=O)N(C)C)cc1Cl and state if its LC retention time is at or above 10 min.
Reply: t

Task item: Try this compound next: Cc1cc(=O)[nH]c(C(C)C)n1
Reply: f

Task item: Try this compound next: COC(=O)CC(O)(CCCC(C)(C)O)C(=O)OC1C(OC)=CC23CCCN2CCc2cc4c(cc2C13)OCO4 (centres undefined)
Reply: f
